target: KCNQ2/3 channels (Homo sapiens, UniProt O43525+O43526); construct: expressed in transfected cells; assay: Fluorescence assay using a voltage sensitive dye (fluorimetry); assay type: cell-based; conditions: CHO-K1, CHO-K1 cells expressing KCNQ2/3 channels; plateau effect relative to saturated Retigabine (50 µM) = 100%; read-out: Fluorimetry % efficacy (retigabine = 100%)
ASSAY METRIC: Emax (%)

Cc1cc(N2CCOCC2)nc(C(C)C)c1C(=O)NC[C@@H]1CCCC[C@H]1O : 243
CCOc1nc(N2CCOCC2)cc(C)c1C(=O)NCCC(O)C(C)(C)C (stereo not drawn) : 231
Cc1cc(N2CCOCC2)nc(C2CC2)c1C(=O)NCCC(O)C(C)(C)C (stereo not drawn) [Example 1] : 237
Cc1cc(N2CCOCC2)nc(C(C)C)c1C(=O)NCCC(O)C(F)(F)F (stereo not drawn) : 150
Cc1cc(N2CCOCC2)nc(C2CC2)c1C(=O)NCCC(O)C(C)(C)C (single isomer, unassigned) [Example 1a] : 242
Cc1cc(N2CCOCC2)nc(C(C)C)c1C(=O)NCCC(O)C(C)(C)C (stereo not drawn) [Example 5] : 230
Cc1cc(N2CCOCC2)nc(C2CC2)c1C(=O)NC[C@@H]1CCCC[C@H]1O : 245
Cc1cc(N2CCOCC2)nc(C2CC2)c1C(=O)NC[C@H]1CCCC[C@@H]1O : 99
Cc1cc(N2CCOCC2)nc(C(C)C)c1C(=O)NCCC(O)C(C)(C)C (single isomer, unassigned) [Example 5a] : 239
